All figures here come from patent US4767770A.

- test_target: aromatase (Rattus norvegicus, UniProt P22443)
- Sequence (P22443 whole entry): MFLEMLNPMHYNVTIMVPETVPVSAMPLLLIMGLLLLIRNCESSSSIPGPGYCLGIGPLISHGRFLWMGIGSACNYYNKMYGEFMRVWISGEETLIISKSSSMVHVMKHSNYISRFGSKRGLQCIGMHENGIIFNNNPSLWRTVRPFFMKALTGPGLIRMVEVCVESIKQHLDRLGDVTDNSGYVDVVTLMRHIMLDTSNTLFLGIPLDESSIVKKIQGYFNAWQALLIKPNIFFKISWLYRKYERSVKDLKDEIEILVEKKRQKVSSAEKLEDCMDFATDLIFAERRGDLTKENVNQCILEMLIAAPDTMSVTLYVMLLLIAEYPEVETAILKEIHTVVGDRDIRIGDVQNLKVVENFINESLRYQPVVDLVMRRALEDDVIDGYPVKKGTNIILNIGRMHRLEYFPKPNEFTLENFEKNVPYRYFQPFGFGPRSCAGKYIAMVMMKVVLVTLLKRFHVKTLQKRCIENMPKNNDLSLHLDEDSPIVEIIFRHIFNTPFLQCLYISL
- assay: biochemical
parameter_measured: pEC50
Answers are plain numbers, as −log10 of the molar value.

# count of solved cases: 3
Clc1ccc(N(Cc2cccnc2)C2=NCCO2)cc1
7.10
Brc1ccc(N(Cc2cccnc2)C2=NCCS2)cc1
6.96
Clc1ccc(N(Cc2cncnc2)C2=NCCS2)cc1
6.21

I am curious: what pEC50 value has been reported for CC(c1ccc(Cl)cc1)N(Cc1cccnc1)C1=NCCS1 (stereo not shown) ?
7.32

###

- test_target: aromatase (Rattus norvegicus)
- assay: biochemical
For each record, check the reported EC50: if it is below 500 nM write TRUE, else write FALSE.

Clc1ccc(N(Cc2cnccn2)C2=NCCS2)cc1
FALSE
CC(c1ccc(F)cc1)N(C1=NCCS1)C(C)c1cccnc1 (stereo not drawn)
FALSE
Clc1ccc(N(Cc2cccnc2)C2=NCCCS2)cc1
TRUE
Clc1ccc(N(Cc2cccnc2)C2=NCCS2)cc1
TRUE
c1ccc(N(Cc2cccnc2)C2=NCCS2)cc1
TRUE

With those in mind, consider the next compound.
Lab note: confirm whether the reported EC50 for this compound is below 500 nM, equality not counting. compound: "Clc1ccc(CN(Cc2cccnc2)C2=NCCS2)c(Cl)c1"
TRUE
